- Tested on: HOP-62
- Procedure summary: NCI 60 cell line screen (SRB), Non-Small Cell Lung Cancer
- Type: cell-based
- Measurement parameters: HOP-62 (Non-Small Cell Lung Cancer)
Outcome measure: Log10TGI

Examples with their reported Log10TGI follow.
| Compound | Log10TGI |
| --- | --- |
| COC1OC2(C)CCC3CCCC(CCOC(=O)c4ccc(C(=O)OCCC5CCCC6CCC7(C)OOC56C(OC)O7)cc4)C31OO2 (centres unmarked) | >−4.00 M |
| CC(=O)O[C@H]1C(=O)[C@@]2(C)[C@H]([C@H](OC(=O)c3ccccc3)[C@]3(O)C[C@H](OC(=O)[C@H](O)[C@@H](NC(=O)c4ccccc4)c4ccccc4)C(C)=C1C3(C)C)[C@]1(OC(C)=O)CO[C@@H]1C[C@@H]2O [Paclitaxel, paclitaxel, reference compound] | −4.80 M |

Endpoint output: Log10TGI of COC1OC2(C)CCC3CCCC(CCOC(=O)c4cccc(C(=O)OCCC5CCCC6CCC7(C)OOC56C(OC)O7)c4)C31OO2 (centres unmarked) . Value?
>−4.30 M

And the next one, COC1OC2(C)CCC3CCCC(CCOCCC4CCCC5CCC6(C)OOC45C(OC)O6)C31OO2 (centres unmarked) ?
>−4.00 M

Try this compound too: C[C@@H]1CC[C@H]2[C@@H](C)C(=O)O[C@@H]3O[C@@]4(C)CC[C@@H]1[C@]32OO4 [QHS, reference compound]
>−4.00 M

----------
- Test system: MOLT-4
- Procedure summary: NCI 60 cell line screen (SRB), Leukemia
- Type: cell-based
- Measurement parameters: MOLT-4 (Leukemia)
Below, each entry is listed alongside its reported Log10GI50.
Please state the figure in M; there is no need to write the unit.

| Compound | Outcome measure | Number |
| --- | --- | --- |
| CC(=O)O[C@H]1C(=O)[C@@]2(C)[C@H]([C@H](OC(=O)c3ccccc3)[C@]3(O)C[C@H](OC(=O)[C@H](O)[C@@H](NC(=O)c4ccccc4)c4ccccc4)C(C)=C1C3(C)C)[C@]1(OC(C)=O)CO[C@@H]1C[C@@H]2O [Paclitaxel, paclitaxel, reference compound] | Log10GI50 | −11.07 |
| COC1OC2(C)CCC3CCCC(CCOCCC4CCCC5CCC6(C)OOC45C(OC)O6)C31OO2 (centres unmarked) | Log10GI50 | −6.27 |
| COC1OC2(C)CCC3CCCC(CCOC(=O)c4ccc(C(=O)OCCC5CCCC6CCC7(C)OOC56C(OC)O7)cc4)C31OO2 (centres unmarked) | Log10GI50 | −6.67 |
| COC1OC2(C)CCC3CCCC(CCOC(=O)c4cccc(C(=O)OCCC5CCCC6CCC7(C)OOC56C(OC)O7)c4)C31OO2 (centres unmarked) | Log10GI50 | −7.68 |

Given C[C@@H]1CC[C@H]2[C@@H](C)C(=O)O[C@@H]3O[C@@]4(C)CC[C@@H]1[C@]32OO4 [QHS, reference compound] , state its recorded Log10GI50.
−4.73

----------
- System: UACC-62
- Procedure summary: NCI 60 cell line screen (SRB), Melanoma
- Assay type: cell-based
- Measurement parameters: UACC-62 (Melanoma)
Outcome measure: Log10GI50 (M)
Output spec: scalar in M, unitless text.

Check out these entries, answers already filled in.
| Compound | Tested system | Unit of measurement | Number |
| --- | --- | --- | --- |
| CC(=O)O[C@H]1C(=O)[C@@]2(C)[C@H]([C@H](OC(=O)c3ccccc3)[C@]3(O)C[C@H](OC(=O)[C@H](O)[C@@H](NC(=O)c4ccccc4)c4ccccc4)C(C)=C1C3(C)C)[C@]1(OC(C)=O)CO[C@@H]1C[C@@H]2O [Paclitaxel, paclitaxel, reference compound] | UACC-62 | M | −10.46 |
| COC1OC2(C)CCC3CCCC(CCOCCC4CCCC5CCC6(C)OOC45C(OC)O6)C31OO2 (centres unmarked) | UACC-62 | M | −6.46 |
| COC1OC2(C)CCC3CCCC(CCOC(=O)c4cccc(C(=O)OCCC5CCCC6CCC7(C)OOC56C(OC)O7)c4)C31OO2 (centres unmarked) | UACC-62 | M | −5.68 |

Lab note: next compound to report on.
Which Log10GI50 is listed for COC1OC2(C)CCC3CCCC(CCOC(=O)c4ccc(C(=O)OCCC5CCCC6CCC7(C)OOC56C(OC)O7)cc4)C31OO2 (centres unmarked) ?
−5.87

----------
- System: OVCAR-8
- Procedure summary: NCI 60 cell line screen (SRB), Ovarian Cancer
- Assay type: cell-based
- Measurement parameters: OVCAR-8 (Ovarian Cancer)
Outcome measure: Log10TGI

Consider the reported Log10TGI for these compounds:
| Compound | Log10TGI |
| --- | --- |
| COC1OC2(C)CCC3CCCC(CCOC(=O)c4cccc(C(=O)OCCC5CCCC6CCC7(C)OOC56C(OC)O7)c4)C31OO2 (stereo not shown) [Compound 10, Trioxane Bis-ester Dimer] | >−4.30 M |
| COC1OC2(C)CCC3CCCC(CCOC(=O)c4ccc(C(=O)OCCC5CCCC6CCC7(C)OOC56C(OC)O7)cc4)C31OO2 (stereo not shown) [Compound 11, Bis-ester Dimer] | >−4.00 M |
| COC1OC2(C)CCC3CCCC(CCOCCC4CCCC5CCC6(C)OOC45C(OC)O6)C31OO2 (stereo not shown) [Compound 6, Trioxane Ether Dimer] | >−4.00 M |

Shifting focus to the compound that follows.
Need Log10TGI of C[C@@H]1CC[C@H]2[C@@H](C)C(=O)O[C@@H]3O[C@@]4(C)CC[C@@H]1[C@]32OO4 [QHS, reference compound] , thanks.
>−4.00 M

----------
Reported Log10LC50 values for the following compounds.
- System: 786-0
- Procedure summary: NCI 60 cell line screen (SRB), Renal Cancer
- Assay type: cell-based
- Measurement parameters: 786-0 (Renal Cancer)

Would you mind telling me what Log10LC50 value was observed for CC(=O)O[C@H]1C(=O)[C@@]2(C)[C@H]([C@H](OC(=O)c3ccccc3)[C@]3(O)C[C@H](OC(=O)[C@H](O)[C@@H](NC(=O)c4ccccc4)c4ccccc4)C(C)=C1C3(C)C)[C@]1(OC(C)=O)CO[C@@H]1C[C@@H]2O [Paclitaxel, paclitaxel, reference compound] ?
>−4.00 M

Continue with COC1OC2(C)CCC3CCCC(CCOC(=O)c4ccc(C(=O)OCCC5CCCC6CCC7(C)OOC56C(OC)O7)cc4)C31OO2 (centres unmarked)
>−4.00 M

Now consider COC1OC2(C)CCC3CCCC(CCOC(=O)c4cccc(C(=O)OCCC5CCCC6CCC7(C)OOC56C(OC)O7)c4)C31OO2 (centres unmarked) .
>−4.30 M

Let us now turn to COC1OC2(C)CCC3CCCC(CCOCCC4CCCC5CCC6(C)OOC45C(OC)O6)C31OO2 (centres unmarked)
>−4.00 M

How about C[C@@H]1CC[C@H]2[C@@H](C)C(=O)O[C@@H]3O[C@@]4(C)CC[C@@H]1[C@]32OO4 [QHS, reference compound] ?
>−4.00 M

----------
- Tested on: SK-MEL-28
- Procedure summary: NCI 60 cell line screen (SRB), Melanoma
- Type: cell-based
- Measurement parameters: SK-MEL-28 (Melanoma)
Outcome measure: Log10LC50

Sample answers from the record:
| Compound | Log10LC50 |
| --- | --- |
| COC1OC2(C)CCC3CCCC(CCOC(=O)c4cccc(C(=O)OCCC5CCCC6CCC7(C)OOC56C(OC)O7)c4)C31OO2 (stereo not shown) | >−4.30 M |
| C[C@@H]1CC[C@H]2[C@@H](C)C(=O)O[C@@H]3O[C@@]4(C)CC[C@@H]1[C@]32OO4 [QHS, reference compound] | >−4.00 M |
| COC1OC2(C)CCC3CCCC(CCOCCC4CCCC5CCC6(C)OOC45C(OC)O6)C31OO2 (stereo not shown) | >−4.00 M |

Next up:
Returns the measured Log10LC50 for the input compound. Input: COC1OC2(C)CCC3CCCC(CCOC(=O)c4ccc(C(=O)OCCC5CCCC6CCC7(C)OOC56C(OC)O7)cc4)C31OO2 (stereo not shown)
>−4.00 M

----------
- Test system: SNB-75
- Procedure summary: NCI 60 cell line screen (SRB), CNS Cancer
- Assay type: cell-based
- Measurement parameters: SNB-75 (CNS Cancer)
Outcome measure: Log10LC50

Endpoint output: Log10LC50 of COC1OC2(C)CCC3CCCC(CCOCCC4CCCC5CCC6(C)OOC45C(OC)O6)C31OO2 (stereo not shown) . Value?
>−4.00 M

----------
Below, each of the compounds is paired with its reported Log10GI50 value.
- Test system: RPMI-8226
- Procedure summary: NCI 60 cell line screen (SRB), Leukemia
- Assay type: cell-based
- Measurement parameters: RPMI-8226 (Leukemia)
The reply should contain only the number, in M.

Here is how some compounds turned out for Log10GI50.
| Compound | Outcome measure | Number |
| --- | --- | --- |
| COC1OC2(C)CCC3CCCC(CCOC(=O)c4ccc(C(=O)OCCC5CCCC6CCC7(C)OOC56C(OC)O7)cc4)C31OO2 (centres unmarked) [Compound 11, Bis-ester Dimer] | Log10GI50 | −6.33 |
| COC1OC2(C)CCC3CCCC(CCOC(=O)c4cccc(C(=O)OCCC5CCCC6CCC7(C)OOC56C(OC)O7)c4)C31OO2 (centres unmarked) [Compound 10, Trioxane Bis-ester Dimer] | Log10GI50 | −6.97 |

Turning now to a further record.
# Log10GI50 lookup, item COC1OC2(C)CCC3CCCC(CCOCCC4CCCC5CCC6(C)OOC45C(OC)O6)C31OO2 (centres unmarked) [Compound 6, Trioxane Ether Dimer]
−6.69
